These measurements were taken from paper PMC8569681.

- tgt: Electrophorus electricus AChE (EeAChE) (Electrophorus electricus, UniProt O42275)
- Construct: purchased Sigma-Aldrich (Milan, Italy)
- Sequence (O42275 24-633): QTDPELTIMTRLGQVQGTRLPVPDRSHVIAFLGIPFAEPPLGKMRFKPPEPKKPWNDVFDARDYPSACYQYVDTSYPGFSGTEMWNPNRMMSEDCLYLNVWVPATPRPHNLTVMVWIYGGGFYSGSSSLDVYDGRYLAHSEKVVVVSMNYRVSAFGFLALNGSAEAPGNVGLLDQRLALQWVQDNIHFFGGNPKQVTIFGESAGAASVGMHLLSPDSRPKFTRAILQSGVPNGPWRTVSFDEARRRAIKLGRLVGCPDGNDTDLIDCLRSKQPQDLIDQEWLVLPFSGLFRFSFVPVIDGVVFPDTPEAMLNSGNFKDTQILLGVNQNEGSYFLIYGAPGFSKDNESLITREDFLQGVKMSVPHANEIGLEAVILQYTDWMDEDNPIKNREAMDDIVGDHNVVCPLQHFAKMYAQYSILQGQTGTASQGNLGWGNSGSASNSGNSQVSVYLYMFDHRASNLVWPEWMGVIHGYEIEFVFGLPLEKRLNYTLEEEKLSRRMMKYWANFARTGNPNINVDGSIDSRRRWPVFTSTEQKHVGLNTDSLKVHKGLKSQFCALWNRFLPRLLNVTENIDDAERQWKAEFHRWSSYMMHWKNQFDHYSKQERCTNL
- experiment summary: Percent inhibition of EeAChE, Ellman's spectrophotometric method
- Type: biochemical
- condition summary: read-out: % inhibition vs EeAChE ± SD (900 uM), 900 uM; supplement csv
Below, each of the molecules is paired with its reported inhibition at 900 µM value.
Give just the number in %; leave the unit off.

(Q) Report inhibition at 900 µM, nothing else, for this molecule: Oc1cccc(CNCCCCCCNc2ccccn2)c1O [Compound 32]
(A) 23.9

(Q) Fill in inhibition at 900 µM for record Clc1cc(CNCCCCCCNc2ccccn2)cc(Cl)n1 [Compound 33]
(A) 6.2

(Q) State its inhibition at 900 µM for this molecule: COc1ccccc1CNCCCCCCNc1ncccn1 [Compound 16]
(A) 15.7

(Q) Entry c1ccc(CNCCCCCNc2ccccn2)cc1 [Compound 23] needs its inhibition at 900 µM filled in; supply it.
(A) 10.3

(Q) Please report the measured inhibition at 900 µM for COc1cc(CNCCCCCCNc2ccccn2)ccc1O [Compound 30]
(A) 17.3

(Q) For Oc1cccc(CNCCCCCCNc2ncccn2)c1 [Compound 19] , write its inhibition at 900 µM.
(A) 39

(Q) Consider the molecule Oc1cccc(CNCCCCCCNc2ncccn2)c1O [Compound 20] . State its measured inhibition at 900 µM.
(A) 53.6

(Q) Write down inhibition at 900 µM measured for item COc1cc(CNCCCCCCNc2ncccn2)ccc1O [Compound 18]
(A) 14.7

(Q) Return reported inhibition at 900 µM. Input molecule: COc1ccccc1CNCCCCCCNc1ccccn1 [Compound 28]
(A) 9

(Q) Specify reported inhibition at 900 µM for the molecule shown: c1cnc(NCCCCCCNCc2c[nH]c3ccccc23)nc1 [Compound 22]
(A) 16.4

(Q) # return recorded inhibition at 900 µM for input COc1ccccc1CNCCCCCNc1ncccn1 [Compound 11]
(A) 14.6

(Q) Output inhibition at 900 µM of c1ccc(CNCCCCCNc2ncccn2)cc1 [Compound 9]
(A) 57.1

(Q) State, in one line, measured inhibition at 900 µM of c1ccc(CNCCCCCCNc2ccccn2)cc1 [Compound 25]
(A) 23.1

(Q) Using known records, supply inhibition at 900 µM for c1ccc(CNCCCCCCNc2ncccn2)cc1 [Compound 13]
(A) 60.3

###

- tgt: equine BChE (eqBChE) (Equus caballus, UniProt P81908)
- Construct: purchased Sigma-Aldrich (Milan, Italy)
- Sequence (P81908 whole entry): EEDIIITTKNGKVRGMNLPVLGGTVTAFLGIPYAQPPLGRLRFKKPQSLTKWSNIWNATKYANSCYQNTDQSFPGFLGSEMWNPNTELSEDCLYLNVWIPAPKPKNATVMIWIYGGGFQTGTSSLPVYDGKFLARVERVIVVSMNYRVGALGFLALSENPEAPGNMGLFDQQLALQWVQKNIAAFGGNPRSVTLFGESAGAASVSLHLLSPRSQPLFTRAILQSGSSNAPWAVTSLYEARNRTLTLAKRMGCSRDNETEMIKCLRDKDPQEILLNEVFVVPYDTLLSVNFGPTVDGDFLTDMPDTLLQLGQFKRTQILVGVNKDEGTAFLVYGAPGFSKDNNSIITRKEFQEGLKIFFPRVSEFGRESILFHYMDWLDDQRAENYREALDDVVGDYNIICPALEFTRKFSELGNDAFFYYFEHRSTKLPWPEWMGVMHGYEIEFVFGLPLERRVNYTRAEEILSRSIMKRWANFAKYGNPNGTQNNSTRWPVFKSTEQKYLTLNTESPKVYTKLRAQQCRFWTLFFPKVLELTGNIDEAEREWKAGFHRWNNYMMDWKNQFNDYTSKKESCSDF
- experiment summary: Percent inhibition of eqBChE, Ellman's spectrophotometric method
- Assay type: biochemical
- condition summary: read-out: % inhibition vs eqBChE ± SD (9 uM), 9 uM; supplement csv
measured attribute: inhibition at 9 µM
Note: a bare number is incomplete; add the unit.

// solved cases for inhibition at 9 µM follow
- chemical structure: "COc1ccccc1CNCCCCCCNc1ccccn1"
  tgt: "equine BChE (eqBChE) (Equus caballus, UniProt P81908)"
  inhibition at 9 µM: "24.2%"
- chemical structure: "Oc1cccc(CNCCCCCCNc2ccccn2)c1"
  tgt: "equine BChE (eqBChE) (Equus caballus, UniProt P81908)"
  inhibition at 9 µM: "19.1%"
- chemical structure: "Brc1ccc(CNCCCCCCNc2ccccn2)cc1"
  tgt: "equine BChE (eqBChE) (Equus caballus, UniProt P81908)"
  inhibition at 9 µM: "17%"
- chemical structure: "Clc1cc(CNCCCCCNc2ncccn2)cc(Cl)n1"
  tgt: "equine BChE (eqBChE) (Equus caballus, UniProt P81908)"
  inhibition at 9 µM: "8.5%"
- chemical structure: "c1cnc(NCCCCCCNCc2c[nH]c3ccccc23)nc1"
  tgt: "equine BChE (eqBChE) (Equus caballus, UniProt P81908)"
  inhibition at 9 µM: "94%"
- chemical structure: "Clc1cc(CNCCCCCCNc2ccccn2)cc(Cl)n1"
  tgt: "equine BChE (eqBChE) (Equus caballus, UniProt P81908)"
  inhibition at 9 µM: "13%"

(Q) Tell me measured inhibition at 9 µM for c1ccc(CNCCCCCCNc2ncccn2)cc1 please.
(A) 26%

(Q) Answer with reported inhibition at 9 µM of COc1ccccc1CNCCCCCNc1ncccn1
(A) 22.1%

(Q) Answer with the recorded inhibition at 9 µM of Oc1cccc(CNCCCCCCNc2ncccn2)c1O only.
(A) 17.1%

(Q) Answer with the recorded inhibition at 9 µM of Oc1cccc(CNCCCCCCNc2ncccn2)c1 only.
(A) 26.6%

(Q) Assign inhibition at 9 µM to the following record: COc1cc(CNCCCCCCNc2ccccn2)ccc1O
(A) 51.2%

###

Each entry below carries its reported inhibition at 9 µM.
- tgt: Electrophorus electricus AChE (EeAChE) (Electrophorus electricus, UniProt O42275)
- Construct: purchased Sigma-Aldrich (Milan, Italy)
- experiment summary: Percent inhibition of EeAChE, Ellman's spectrophotometric method
- Type: biochemical
- condition summary: read-out: % inhibition vs EeAChE ± SD, [I] 9 μM; 0.0833 U/mL enzyme, 100 μM acetylthiocholine

- chemical structure: "c1ccc(CNCCCCCNc2ccccn2)cc1"
  measured attribute: "inhibition at 9 µM"
  meas value: "53.5%"
- chemical structure: "c1ccc(CNCCCCCNc2ncccn2)cc1"
  measured attribute: "inhibition at 9 µM"
  meas value: "~90%"
- chemical structure: "c1ccc(CNCCCCCCNc2ncccn2)cc1"
  measured attribute: "inhibition at 9 µM"
  meas value: "~90%"
- chemical structure: "Clc1ccc(CNCCCCCCNc2ncccn2)cc1"
  measured attribute: "inhibition at 9 µM"
  meas value: "29.9%"
- chemical structure: "COc1cc(CNCCCCCCNc2ccccn2)cc(OC)c1OC"
  measured attribute: "inhibition at 9 µM"
  meas value: "24 to 30%"

From here, focus on the item given below.
(Q) Output reported inhibition at 9 µM of the compound Clc1ccc(CNCCCCCCNc2ccccn2)cc1 on Electrophorus electricus AChE (EeAChE) (Electrophorus electricus, UniProt O42275).
(A) 24 to 30%

###

- tgt: equine BChE (eqBChE) (Equus caballus)
- Construct: purchased Sigma-Aldrich (Milan, Italy)
- experiment summary: Percent inhibition of eqBChE, Ellman's spectrophotometric method
- Type: biochemical
- condition summary: [I] 9 μM; 0.0833 U/mL enzyme, 100 μM acetylthiocholine; read-out: % inhibition vs eqBChE ± SD
Assign Yes to entries whose inhibition at 9 µM meets or exceeds 60%; assign No to the rest.

Known results for molecules:
- molecule: "COc1cc(CNCCCCCCNc2ccccn2)cc(OC)c1OC [Compound 29]"
  tgt: "equine BChE (eqBChE) (Equus caballus)"
  answer label: "Yes"
- molecule: "Clc1cc(CNCCCCCCNc2ncccn2)cc(Cl)n1 [Compound 21]"
  tgt: "equine BChE (eqBChE) (Equus caballus)"
  answer label: "No"
- molecule: "Clc1ccc(CNCCCCCCNc2ccccn2)cc1 [Compound 27]"
  tgt: "equine BChE (eqBChE) (Equus caballus)"
  answer label: "Yes"

(Q) In plain terms: is recorded inhibition at 9 µM at least 60% for COc1ccccc1CNCCCCCNc1ncccn1 [Compound 11] ?
(A) No

(Q) Is it the case that Oc1cccc(CNCCCCCCNc2ncccn2)c1 [Compound 19] has inhibition at 9 µM reaching or exceeding 60%?
(A) No

(Q) Please tell me: is the molecule Brc1ccc(CNCCCCCNc2ncccn2)cc1 [Compound 10] at or over 60% in terms of inhibition at 9 µM?
(A) No

###

- tgt: Electrophorus electricus AChE (EeAChE) (Electrophorus electricus, UniProt O42275)
- Construct: purchased Sigma-Aldrich (Milan, Italy)
- experiment summary: Inhibition constant and mechanism vs EeAChE, Dixon's method
- Assay type: biochemical
- condition summary: mixed inhibition; α > 1 free enzyme, α < 1 enzyme–substrate complex
Catalogue of α, EeAChE readings, one per entry.
Form rule: numeric answer, no unit written next to it.

Some compounds with known α, EeAChE results, for comparison:
- compound: "c1ccc(CNCCCCCNc2ccccn2)cc1 [Compound 23]"
  tgt: "Electrophorus electricus AChE (EeAChE) (Electrophorus electricus, UniProt O42275)"
  α, EeAChE: 2.2
- compound: "c1ccc(CNCCCCCCNc2ncccn2)cc1 [Compound 13]"
  tgt: "Electrophorus electricus AChE (EeAChE) (Electrophorus electricus, UniProt O42275)"
  α, EeAChE: 0.3
- compound: "c1ccc(CNCCCCCCNc2ccccn2)cc1 [Compound 25]"
  tgt: "Electrophorus electricus AChE (EeAChE) (Electrophorus electricus, UniProt O42275)"
  α, EeAChE: 0.8
- compound: "c1ccc(CNCCCCCNc2ncccn2)cc1 [Compound 9]"
  tgt: "Electrophorus electricus AChE (EeAChE) (Electrophorus electricus, UniProt O42275)"
  α, EeAChE: 7.5

Continue with the compound presented below.
(Q) Please indicate recorded α, EeAChE of COc1ccccc1CNCCCCCCNc1ccccn1 [Compound 28] measured with Electrophorus electricus AChE (EeAChE) (Electrophorus electricus, UniProt O42275).
(A) 1.2
